Test system: LPS-induced lung neutrophils
Protocol notes: Inhibition of LPS-induced lung neutrophilia in rats after intratracheal dosing
Assay type: in vivo
Condition info: male CD Sprague-Dawley rats; single intratracheal dose 4 hours before nebulised LPS; BAL 4 hours after LPS
Rule: ED50 for inhibition of lung neutrophilia below 2 µg gives yes. Equal to or above 2 µg gives no.

| Substance smiles | Qualitative label |
| --- | --- |
| CSc1cccc(Sc2ccc([C@@H]3O[C@@H]4C[C@H]5[C@@H]6C[C@H](F)C7=CC(=O)C=C[C@]7(C)[C@@]6(F)[C@@H](O)C[C@]5(C)[C@]4(C(=O)CO)O3)cc2)c1 | yes |
| C[C@]12C=CC(=O)C=C1[C@@H](F)C[C@H]1[C@@H]3C[C@H]4O[C@@H](c5ccc(CSc6ccc(O)c(Cl)c6)cc5)O[C@@]4(C(=O)CO)[C@@]3(C)C[C@H](O)[C@@]12F | no |
| C[C@]12C=CC(=O)C=C1[C@@H](F)C[C@H]1[C@@H]3C[C@H]4O[C@@H](c5ccc(CSc6ccc(O)cc6)cc5)O[C@@]4(C(=O)CO)[C@@]3(C)C[C@H](O)[C@@]12F | yes |
| C[C@]12C=CC(=O)C=C1[C@@H](F)C[C@H]1[C@@H]3C[C@H]4O[C@@H](c5ccc(Cc6ccccc6)cc5)O[C@@]4(C(=O)CO)[C@@]3(C)C[C@H](O)[C@@]12F | yes |
